Values from ChEMBL document CHEMBL5291721

Each entry below carries its measured AC50, system: Cannabinoid receptor 1 (Homo sapiens, UniProt P21554). Also: assay procedure not described here.
Sequence (P21554 whole entry): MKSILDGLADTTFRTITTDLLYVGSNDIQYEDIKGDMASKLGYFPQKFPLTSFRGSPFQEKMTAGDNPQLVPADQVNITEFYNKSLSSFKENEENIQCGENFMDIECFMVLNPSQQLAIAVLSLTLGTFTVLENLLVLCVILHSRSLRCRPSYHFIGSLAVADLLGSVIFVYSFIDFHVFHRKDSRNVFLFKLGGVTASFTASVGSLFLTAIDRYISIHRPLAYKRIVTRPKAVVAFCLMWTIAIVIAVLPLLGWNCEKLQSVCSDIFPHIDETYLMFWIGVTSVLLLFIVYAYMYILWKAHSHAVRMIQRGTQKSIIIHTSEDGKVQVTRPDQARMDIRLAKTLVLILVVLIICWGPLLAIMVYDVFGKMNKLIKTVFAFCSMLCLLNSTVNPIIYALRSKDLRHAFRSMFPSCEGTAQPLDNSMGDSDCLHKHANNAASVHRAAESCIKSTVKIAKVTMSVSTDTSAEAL

Here are 3 compounds together with their reported answers.
| compound | obs_value |
| --- | --- |
| CC(C)CN(C[C@@H](O)[C@H](Cc1ccccc1)NC(=O)O[C@H]1CCOC1)S(=O)(=O)c1ccc(N)cc1 | 11.4 µM |
| NCC1(CC(=O)O)CCCCC1 [GABAPENTIN] | > 10 µM |
| CN(C)[C@@H]1C(O)=C(C(=O)NCN2CCCC2)C(=O)[C@@]2(O)C(O)=C3C(=O)c4c(O)cccc4[C@@](C)(O)[C@H]3C[C@@H]12 [ROLITETRACYCLINE] | > 10 µM |

// each compound listed below needs its AC50
1. O=C(O)CCCC[C@@H]1SC[C@@H]2NC(=O)N[C@@H]21 [BIOTIN]
2. CN(C)CCC=C1c2ccccc2CCc2ccccc21 [AMITRIPTYLINE]
3. N=C(N)NC(=O)Cc1c(Cl)cccc1Cl [GUANFACINE]
4. Cc1nnc2n1-c1ccc(Cl)cc1C(c1ccccc1)=NC2 [ALPRAZOLAM]
5. OCC(O)COc1ccc(Cl)cc1 (centres undefined)
6. CCOC(=O)[C@H](CCc1ccccc1)N[C@@H](C)C(=O)N1Cc2ccccc2C[C@H]1C(=O)O

1. > 10 µM
2. > 10 µM
3. > 10 µM
4. 3.35 µM
5. > 10 µM
6. > 10 µM

---

- experimental_target: 3',5'-cyclic-AMP phosphodiesterase 4D (Homo sapiens); also: assay procedure not described here
- Sequence (Q08499 whole entry): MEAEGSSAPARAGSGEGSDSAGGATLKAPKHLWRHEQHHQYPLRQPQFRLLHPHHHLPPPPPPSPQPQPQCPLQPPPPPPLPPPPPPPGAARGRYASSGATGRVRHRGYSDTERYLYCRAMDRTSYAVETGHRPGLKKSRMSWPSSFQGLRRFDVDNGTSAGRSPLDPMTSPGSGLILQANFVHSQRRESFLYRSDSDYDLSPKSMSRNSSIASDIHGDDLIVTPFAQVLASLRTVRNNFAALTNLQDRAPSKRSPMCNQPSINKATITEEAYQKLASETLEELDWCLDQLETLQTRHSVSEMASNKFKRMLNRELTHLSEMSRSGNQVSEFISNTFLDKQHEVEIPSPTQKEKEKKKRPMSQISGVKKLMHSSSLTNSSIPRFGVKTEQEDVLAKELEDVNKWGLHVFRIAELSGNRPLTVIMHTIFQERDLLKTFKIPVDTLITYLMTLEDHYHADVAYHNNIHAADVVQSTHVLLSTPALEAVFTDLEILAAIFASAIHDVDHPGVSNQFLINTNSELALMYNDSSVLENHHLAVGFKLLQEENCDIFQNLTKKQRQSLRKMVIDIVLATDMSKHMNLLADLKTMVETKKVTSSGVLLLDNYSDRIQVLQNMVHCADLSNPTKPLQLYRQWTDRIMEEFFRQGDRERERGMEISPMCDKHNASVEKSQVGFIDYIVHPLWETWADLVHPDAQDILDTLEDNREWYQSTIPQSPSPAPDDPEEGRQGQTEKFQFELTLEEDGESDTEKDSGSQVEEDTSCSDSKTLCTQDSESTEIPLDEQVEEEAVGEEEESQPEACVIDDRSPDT
- Type: functional
Provide the reported AC50 of each item.

Here are 4 molecules together with their reported answers.
| molecule | obs_value |
| --- | --- |
| CN1CC2c3ccccc3Oc3ccc(Cl)cc3C2C1 (stereo not given) [ASENAPINE] | > 30 µM |
| CC(=O)N1CCN(c2ccc(OCC3COC(Cn4ccnc4)(c4ccc(Cl)cc4Cl)O3)cc2)CC1 (stereo not given) [KETOCONAZOLE] | > 10 µM |
| CC(C)C[C@H](NC(=O)[C@H](Cc1ccccc1)NC(=O)c1cnccn1)B(O)O [BORTEZOMIB] | > 30 µM |
| COC(=O)CCc1ccc(OCC(O)CNC(C)C)cc1 (stereo not given) [ESMOLOL] | > 30 µM |

# input for lookup
Per the record, Cc1nnc2n1-c1ccc(Cl)cc1C(c1ccccc1)=NC2 [ALPRAZOLAM] has AC50 of > 30 µM

---

Provide the reported AC50 of each item.
- experimental_target: Progesterone receptor (Homo sapiens, UniProt P06401); also: assay procedure not described here
- Sequence (P06401 whole entry): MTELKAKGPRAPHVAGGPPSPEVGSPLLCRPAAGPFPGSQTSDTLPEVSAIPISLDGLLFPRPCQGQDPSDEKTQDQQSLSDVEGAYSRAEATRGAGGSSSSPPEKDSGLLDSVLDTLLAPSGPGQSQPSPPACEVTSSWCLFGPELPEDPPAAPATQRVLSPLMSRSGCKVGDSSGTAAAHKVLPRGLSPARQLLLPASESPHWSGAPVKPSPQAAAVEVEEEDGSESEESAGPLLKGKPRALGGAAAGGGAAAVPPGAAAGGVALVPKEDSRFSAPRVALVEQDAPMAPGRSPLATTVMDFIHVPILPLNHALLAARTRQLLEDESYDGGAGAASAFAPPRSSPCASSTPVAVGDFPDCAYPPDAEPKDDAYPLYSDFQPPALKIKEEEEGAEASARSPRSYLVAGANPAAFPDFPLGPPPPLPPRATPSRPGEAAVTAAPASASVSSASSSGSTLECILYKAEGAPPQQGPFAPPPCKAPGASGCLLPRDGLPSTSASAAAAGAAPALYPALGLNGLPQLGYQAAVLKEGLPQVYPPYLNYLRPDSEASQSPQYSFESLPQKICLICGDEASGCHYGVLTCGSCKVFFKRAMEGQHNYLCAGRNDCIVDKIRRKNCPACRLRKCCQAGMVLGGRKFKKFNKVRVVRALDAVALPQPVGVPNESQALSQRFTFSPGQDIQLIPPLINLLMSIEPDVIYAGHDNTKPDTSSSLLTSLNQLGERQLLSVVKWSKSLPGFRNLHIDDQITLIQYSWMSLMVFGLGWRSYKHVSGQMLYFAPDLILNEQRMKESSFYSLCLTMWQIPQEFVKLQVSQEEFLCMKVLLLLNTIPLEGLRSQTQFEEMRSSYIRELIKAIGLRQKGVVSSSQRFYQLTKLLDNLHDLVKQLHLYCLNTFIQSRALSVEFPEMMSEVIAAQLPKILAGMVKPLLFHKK

| compound | experimental_target | AC50 |
| --- | --- | --- |
| COC(=O)N(C)c1c(N)nc(-c2nn(Cc3ccccc3F)c3ncccc23)nc1N [RIOCIGUAT] | Progesterone receptor (Homo sapiens, UniProt P06401) | > 30 µM |

// each compound listed below needs its AC50
1. Cc1ncc(CO)c(CO)c1O [PYRIDOXINE]
2. C#CCN(C)Cc1ccccc1 [PARGYLINE]
3. CN1CCc2c(c3ccccc3n2Cc2ccccc2)C1 [MEBHYDROLIN]

> 30 µM
> 30 µM
> 30 µM

// each compound listed below needs its AC50
1. CC(C)(Oc1ccc(Cl)cc1)C(=O)NC(=O)NCN1CCOCC1 [PLAFIBRIDE]
2. CC(=O)Nc1ccc(/C=N/NC(N)=S)cc1 [AMITHIOZONE]
3. Cc1c(C(C)C)c(=O)n(-c2ccccc2)n1C [PROPYPHENAZONE]
4. N[C@@H](Cc1ccc(O)cc1)C(=O)O [TYROSINE]
5. CC(=O)Oc1ccccc1C(=O)O [ASPIRIN]
6. CC(C)NC[C@H](O)COc1ccc(O)cc1 [PRENALTEROL]
7. COC(=O)Nc1nc2cc(C(=O)c3ccc(F)cc3)ccc2[nH]1 [FLUBENDAZOLE]

["> 30 µM", "> 30 µM", "> 30 µM", "> 30 µM", "> 30 µM", "> 30 µM", "> 30 µM"]
